Target: T1, P6-AA-12HAA-T
T1 chain: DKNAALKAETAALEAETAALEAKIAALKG
Test: two-hybrid library CCmax;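 also: natural log of median RNA to DNA barcode read ratio; higher means stronger binding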
Conditions: mean of both orientations
Class definitions on interaction score: A: < -1; B: ≥ -1 and < -0.6; C: ≥ -0.6

binder | assigned_category
DENAALEAKSAALKAKSAALKAEIAALEG [P5-AA-12HAA-S] | A
DENAALEAKDAALKAKDAALKAEIAALEG [P5-AA-12HAA-D] | A
DENAALEAKHAALKAKHAALKAEIAALEG [P5-AA-12HAA-H] | B

Ask | Any idea which band DENAALEAKAAALKAKAAALKAEIAALEG [P5-AA-12HAA-A] is in?
Reply | B

Ask | Any idea which band DENAALEAKVAALKAKVAALKAEIAALEG [P5-AA-12HAA-V] is in?
Reply | C

Ask | Any idea which band DENAALEAKNAALKAKNAALKAEIAALEG [P5-AA-1HAA-N] is in?
Reply | C

Ask | Any idea which band DENAALEAKRAALKAKRAALKAEIAALEG [P5-AA-12HAA-R] is in?
Reply | B

Ask | Any idea which band DENAALEAKKAALKAKKAALKAEIAALEG [P5-AA-12HAA-K] is in?
Reply | B

Ask | Any idea which band DENAALEAKEAALKAKEAALKAEIAALEG [P5-AA-12HAA-E] is in?
Reply | A

Ask | Any idea which band DENAALEAKLAALKAKLAALKAEIAALEG [P5-AA-12HAA-L] is in?
Reply | C

Ask | Any idea which band DENAALEAKTAALKAKTAALKAEIAALEG [P5-AA-12HAA-T] is in?
Reply | A
